Please provide measured IC50 for the entries that follow.
- system: Plasma Kallikrein (Homo sapiens)
- Construct: FXIIa converts plasma prekallikrein (PK) to plasma kallikrein (PKa)
- Sequence (P03952 391-638 limits assumed): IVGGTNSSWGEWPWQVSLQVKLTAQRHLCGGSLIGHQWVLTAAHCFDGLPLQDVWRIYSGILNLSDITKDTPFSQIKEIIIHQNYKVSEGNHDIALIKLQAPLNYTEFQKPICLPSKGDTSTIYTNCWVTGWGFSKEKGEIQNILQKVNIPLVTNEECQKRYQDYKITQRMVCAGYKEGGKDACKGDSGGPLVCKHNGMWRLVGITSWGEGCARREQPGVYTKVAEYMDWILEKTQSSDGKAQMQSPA
- Sequence (P03952 20-390 partner limits assumed): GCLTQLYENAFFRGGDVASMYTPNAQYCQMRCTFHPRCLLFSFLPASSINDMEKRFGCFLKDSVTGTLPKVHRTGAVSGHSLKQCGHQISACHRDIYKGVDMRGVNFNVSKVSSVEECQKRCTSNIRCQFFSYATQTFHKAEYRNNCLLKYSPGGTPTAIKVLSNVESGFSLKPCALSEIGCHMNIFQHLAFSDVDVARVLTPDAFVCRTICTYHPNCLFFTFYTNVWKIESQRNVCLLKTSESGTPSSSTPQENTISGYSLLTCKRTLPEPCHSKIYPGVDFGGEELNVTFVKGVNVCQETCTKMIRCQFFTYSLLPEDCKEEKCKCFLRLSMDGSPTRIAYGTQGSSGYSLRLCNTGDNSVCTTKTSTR
- protocol-notes: Related protease inhibition: Plasma Kallikrein (fluorogenic substrate at Km)
- study-conditions: class symbols per Table 18, read-out: IC50 (human PKal)

Problem: Output IC50 of Cn1ccc(OCC23CN(CCCc4ccccc4)C(CNc4cccc5c(N)nccc45)(C2)C3)cc1=O
Solution: > 40 µM

Problem: Output IC50 of Nc1nccc2c(NC34CC(COc5ccc6nccn6c5)(C3)C4)cccc12
Solution: > 40 µM

Problem: Output IC50 of Nc1nccc2c(NCC34COC(COc5ccc6ncnn6c5)(C3)C4)cccc12
Solution: > 40 µM

Problem: Output IC50 of Nc1nccc2c(NCC34CC(COc5cnc6cc[nH]c6c5)(C3)C4)cccc12
Solution: > 40 µM

Problem: Output IC50 of Cn1ccc(OCC23CN(C(=O)Nc4ccccc4)C(CNc4cccc5c(N)nccc45)(C2)C3)cc1=O
Solution: 10 to 40 µM

Problem: Output IC50 of Cc1cnc2ccc(OCC34COC(CNc5cccc6c(N)nccc56)(C3)C4)cn12
Solution: 10 to 40 µM

Problem: Output IC50 of Nc1nccc2c(NCC34CC(COC5CCn6ccnc6C5)(C3)C4)cccc12 (single isomer, unassigned) [Example 1002.2]
Solution: > 40 µM

Problem: Output IC50 of Nc1nccc2c(NCC34CC(COc5ccc6nnc(C(F)F)n6n5)(CCO3)C4)cccc12
Solution: > 40 µM

Problem: Output IC50 of Cc1cc(OCC23CCOC(CNc4cccc5c(N)nccc45)(C2)C3)cc(=O)n1C
Solution: > 40 µM

Problem: Output IC50 of Clc1cc2c(NCC34CC(COC5CCn6ccnc6C5)(C3)C4)ccnc2[nH]1 (stereo not shown)
Solution: > 40 µM

Problem: Output IC50 of Nc1nccc2c(NCC34CC(Cn5ccn6ccc(=O)cc56)(C3)C4)cccc12
Solution: > 40 µM

Problem: Output IC50 of Nc1nccc2c(NCC34CC(COc5ccc6nnc(C(F)F)n6c5)(CO3)C4)cccc12
Solution: > 40 µM

Problem: Output IC50 of Nc1nccc2c(NCC34CC(COC5CCn6ccnc6C5)(CCO3)C4)cccc12 (stereo not shown)
Solution: > 4 µM

Problem: Output IC50 of Nc1nccc2c(NCC34CC(C(=O)N5CCn6ccnc6C5)(C3)C4)cccc12
Solution: > 40 µM

Problem: Output IC50 of Cn1ccc(OCC23CN(C(=O)Oc4ccccc4)C(CNc4cccc5c(N)nccc45)(C2)C3)cc1=O
Solution: > 4 µM

Problem: Output IC50 of Nc1nccc2c(N3CCC4(CC(OCc5ccn6ccnc6c5)C4)C3)cccc12 (stereo not shown) [Example 8805]
Solution: > 40 µM

Problem: Output IC50 of Nc1nccc2c(N3CC4(CC(OCc5ccn6ccnc6c5)C4)C3)cccc12
Solution: > 40 µM

Problem: Output IC50 of Cn1ccc(OCC23CN(C(=O)NCc4ccccc4)C(CNc4cccc5c(N)nccc45)(C2)C3)cc1=O
Solution: 10 to 40 µM

Problem: Output IC50 of Clc1cc2c(NCC34CC(COc5ccc6nccn6c5)(CO3)C4)ccnc2[nH]1
Solution: > 40 µM

Problem: Output IC50 of Nc1nccc2c(NCC34CC(CN5CCn6ccnc6C5)(C3)C4)cccc12
Solution: > 40 µM

Problem: Output IC50 of Nc1nccc2c(NCC34CC(COc5ccn6ccnc6c5)(C3)C4)cccc12
Solution: > 40 µM

Problem: Output IC50 of Nc1nccc2c(NCC34CC(Cn5ccccc5=O)(CCO3)C4)cccc12
Solution: > 40 µM

Problem: Output IC50 of Cc1cn2ccnc2cc1OCC12CCOC(CNc3cccc4c(N)nccc34)(C1)C2
Solution: 3 to 10 µM

Problem: Output IC50 of N#Cc1cnc(OCC23CC(CNc4cccc5c(N)nccc45)(CO2)C3)nc1
Solution: > 40 µM

Problem: Output IC50 of Nc1nccc2c(NCC34CC(COC5CCn6ccnc6C5)(C3)C4)cccc12 (single isomer, unassigned) [Example 1002.1]
Solution: > 40 µM

Problem: Output IC50 of Cn1ccc(OCC23CN(C(=O)OCc4ccccc4)C(CNc4cccc5c(N)nccc45)(C2)C3)cc1=O
Solution: > 40 µM

Problem: Output IC50 of Nc1nccc2c(NCC34CC(COc5ccc6nnc(C(F)F)n6n5)(CO3)C4)cccc12
Solution: > 40 µM

Problem: Output IC50 of Nc1nccc2c(N3CCC4(CC(OCc5ccn6ccnc6c5)C4)C3)cccc12 (stereo not shown) [Example 8803]
Solution: > 40 µM

Problem: Output IC50 of Cn1ccc(OCC23CC(CNc4cccc5c(N)nccc45)(CO2)C3)cc1=O
Solution: > 40 µM

Problem: Output IC50 of Nc1nccc2c(NCC34CC(COC5Cc6nccn6C5)(C3)C4)cccc12 (stereo not shown)
Solution: > 40 µM

Problem: Output IC50 of Nc1nccc2c(NCC34CC(COc5ccn6ccnc6c5)(CO3)C4)cccc12
Solution: > 40 µM

Origin of measurements: patent US20240327412A1
